Listing: growth inhibition of selected molecules
Assay: NCI Yeast Anticancer Drug Screen. Data for the cln2 rad14 strain (AID 165);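 further: 0% = growth equal to vehicle treated cultures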
Settings: S. cerevisiae cln2 rad14 strain, at 50.0 µM, active compounds read high
Compounds without any hit were thinned out: in the full panel of roughly 79,000, 15% have a hit.

{"molecule": "COC(=O)OC(C#N)c1cccc([N+](=O)[O-])c1 (stereo unspecified)", "unit of measure": "%", "growth inhibition": -13.7}
{"molecule": "ClCC1OC1CCl (stereo unspecified)", "unit of measure": "%", "growth inhibition": -10.6}
{"molecule": "O=C1N2Cc3c4ccc5c3CN3C(=O)N6Cc7c(ccc(c7CN1C6(c1ccccc1)C23c1ccccc1)OCCOCCNCCOCCO4)OCCOCCNCCOCCO5 (stereo unspecified)", "unit of measure": "%", "growth inhibition": 3.4}
{"molecule": "Cc1ccc(N=NC2=C3Sc4ccccc4N=C2N(c2ccc(Br)cc2)C(=S)N3c2ccc(Cl)cc2)cc1", "unit of measure": "%", "growth inhibition": 18.9}
{"molecule": "CC(Cc1ccccc1)NC(=O)c1ccncc1 (stereo unspecified)", "unit of measure": "%", "growth inhibition": -39.7}
{"molecule": "CC(Cc1ccccc1)NC(=O)C1CC2CCCCN2C1C (stereo unspecified)", "unit of measure": "%", "growth inhibition": 45.9}
{"molecule": "CC1Cn2c(nccc2=O)S1 (stereo unspecified)", "unit of measure": "%", "growth inhibition": 1.9}
{"molecule": "CC[n+]1ccc(/C=C\\c2c(Cl)cccc2Cl)cc1", "unit of measure": "%", "growth inhibition": 3}
{"molecule": "Cc1cccc(C(=O)OCCCl)c1", "unit of measure": "%", "growth inhibition": -29.1}
{"molecule": "CC(=O)Nc1nnc(C)o1", "unit of measure": "%", "growth inhibition": -40.6}
{"molecule": "COc1ccc(NC(=O)Nc2ccc(SC)cc2)c(Cl)c1", "unit of measure": "%", "growth inhibition": -13.9}
{"molecule": "CCOC(=O)/C=C\\C(=O)OCC", "unit of measure": "%", "growth inhibition": 10}
{"molecule": "COc1ccc2c(=O)c(S)coc2c1", "unit of measure": "%", "growth inhibition": 9}
{"molecule": "CCC(=O)c1c(O)cc(O)cc1O", "unit of measure": "%", "growth inhibition": -22.6}
{"molecule": "CN1C(=O)C(Cc2cnc[nH]2)NC1=S (stereo unspecified)", "unit of measure": "%", "growth inhibition": -7.5}
{"molecule": "Cc1nc(SCC(=O)Nc2ccc(Cl)cc2)c2sc(=S)n(-c3ccccc3)c2n1", "unit of measure": "%", "growth inhibition": 2.35}
{"molecule": "CCCCCC1CCC(O)CC1 (stereo unspecified)", "unit of measure": "%", "growth inhibition": -61.4}
{"molecule": "CC(C)=C1OC(=O)C1(C)C", "unit of measure": "%", "growth inhibition": 17.4}
{"molecule": "O=c1cc2n(c(=O)n1-c1ccccc1)CCCC2", "unit of measure": "%", "growth inhibition": 12.2}
{"molecule": "OC(CC1CCCCN1)c1cc2c(Cl)cc(Cl)cc2c2cc(C(F)(F)F)ccc12 (stereo unspecified)", "unit of measure": "%", "growth inhibition": 30.1}
{"molecule": "CC1(C)N=C(N)N=C(N)N1c1ccc(-c2ccccc2)cc1", "unit of measure": "%", "growth inhibition": -0.75}
{"molecule": "NC(N)=N/N=C(/c1nc2ccc([N+](=O)[O-])cc2[nH]c1=O)C(O)c1ccco1 (stereo unspecified)", "unit of measure": "%", "growth inhibition": 5.95}
{"molecule": "Oc1ccc(O)c(CCCc2cc(O)ccc2O)c1", "unit of measure": "%", "growth inhibition": 0.5}
{"molecule": "CC/C(=N\\NS(=O)(=O)c1ccc(C)cc1)c1ccc(Br)cc1", "unit of measure": "%", "growth inhibition": -7.3}
{"molecule": "CSc1nc2c(c(=O)[nH]1)N=C(c1ccccc1)CC(c1ccccc1)N2 (stereo unspecified)", "unit of measure": "%", "growth inhibition": -0.55}
{"molecule": "O=C(Nc1ccc2c(c1)Cc1ccccc1-2)C(Cl)Cl", "unit of measure": "%", "growth inhibition": -7.85}

Reference source: PubChem BioAssay (NCI)
